test: IV cassette pharmacokinetic study in female Sprague-Dawley rats (PRESCOS, LLC); assay type: in vivo; conditions: plasma; female Sprague-Dawley rat, 1 mg/kg IV cassette, sampling to 8 h (PRESCOS); read-out: plasma t½ after 1 mg/kg iv bolus dose in rat (converted)
parameter: half-life (min)

P = CC(C)(c1cc(Cl)cc([C@H](CC(=O)O)NC(=O)CNC(=O)c2cc(O)cc(NC3=NCC(O)CN3)c2)c1)C(F)(F)F (stereo partly shown) [Example C23]
Q = CC(C)(O)c1cc([C@H](CC(=O)O)NC(=O)CNC(=O)c2cc(O)cc(NC3=NCC(O)CN3)c2)cc(C(F)(F)F)c1 (stereo partly shown) [Example C21]
So which one has the bigger half-life here, P or Q ? Reply briefly: the label of your chosen item.
Q

a = N#CC1(c2cc(Cl)cc([C@H](CC(=O)O)NC(=O)CNC(=O)c3cc(O)cc(NC4=NCC(O)CN4)c3)c2)CCOCC1 (stereo partly shown) [Example C26]
b = CC(C)(C#N)c1cc(Br)cc([C@H](CC(=O)O)NC(=O)CNC(=O)c2cc(O)cc(NC3=NCC(O)CN3)c2)c1 (stereo partly shown) [Example C19]
So which one has the bigger half-life here, a or b ? Reply briefly: the label of your chosen item.
b

A = N#CC1(c2cc(Cl)cc([C@H](CC(=O)O)NC(=O)CNC(=O)c3cc(O)cc(NC4=NCC(O)CN4)c3)c2)CCC1 (stereo partly shown) [Example C25]
B = CC(C)(C)c1cc(C#N)cc([C@H](CC(=O)O)NC(=O)CNC(=O)c2cc(O)cc(NC3=NCC(O)CN3)c2)c1 (stereo partly shown) [Example C20]
Which value of half-life is smaller, the one for A or the one for B ? Reply briefly: the label of your chosen item.
A
(A: 13.8 min, B: 22.8 min)

I = O=C(O)C[C@H](NC(=O)CNC(=O)c1cc(O)cc(NC2=NCC(O)CN2)c1)c1cc(Cl)cc(C2(CF)CCOCC2)c1 (stereo partly shown) [Example C22]
II = CC(O)(c1cc([C@H](CC(=O)O)NC(=O)CNC(=O)c2cc(O)cc(NC3=NCC(O)CN3)c2)cc(C(F)(F)F)c1)C(F)(F)F (stereo partly shown) [Example C27]
Which value of half-life is smaller, the one for I or the one for II ? Reply briefly: the label of your chosen item.
II
(II: 12.6 min, I: 18 min)
